Molecular target: Fatty-acid amide hydrolase 1 (Rattus norvegicus)
Sequence (P97612 whole entry): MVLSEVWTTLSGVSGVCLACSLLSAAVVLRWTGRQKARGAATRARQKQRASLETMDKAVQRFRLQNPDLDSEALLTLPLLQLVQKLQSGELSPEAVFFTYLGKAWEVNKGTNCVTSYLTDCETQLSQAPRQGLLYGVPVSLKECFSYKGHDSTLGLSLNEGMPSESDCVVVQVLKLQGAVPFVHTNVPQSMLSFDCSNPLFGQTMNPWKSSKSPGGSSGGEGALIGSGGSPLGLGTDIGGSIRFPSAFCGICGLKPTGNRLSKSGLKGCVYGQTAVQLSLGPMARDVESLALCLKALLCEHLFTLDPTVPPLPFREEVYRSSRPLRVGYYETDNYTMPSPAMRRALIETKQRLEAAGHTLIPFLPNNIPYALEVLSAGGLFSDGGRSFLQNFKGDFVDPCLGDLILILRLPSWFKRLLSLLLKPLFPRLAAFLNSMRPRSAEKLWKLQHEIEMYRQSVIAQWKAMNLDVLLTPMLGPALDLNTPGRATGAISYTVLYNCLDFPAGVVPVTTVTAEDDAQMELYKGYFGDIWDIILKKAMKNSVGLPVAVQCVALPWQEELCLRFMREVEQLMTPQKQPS
Assay: Inhibition of rat FAAH
Outcome measure: IC50
Quick note: number first, unit second.

## Task Look up Fatty-acid amide hydrolase 1 (Rattus norvegicus) data: IC50 of `COc1nn(-c2cccc(Oc3ccccc3)c2)c(=O)o1` , then report it.
## Result 6.1 nM

Could you now look at the following compound, please?
## Task Give the observed IC50 of `COc1nn(-c2ccc(NC(=O)OCc3ccccc3)c(C)c2)c(=O)o1` for Fatty-acid amide hydrolase 1 (Rattus norvegicus).
## Result 86 nM

----------
Target: Fatty-acid amide hydrolase 1 (Homo sapiens, UniProt O00519)
Sequence (O00519 whole entry): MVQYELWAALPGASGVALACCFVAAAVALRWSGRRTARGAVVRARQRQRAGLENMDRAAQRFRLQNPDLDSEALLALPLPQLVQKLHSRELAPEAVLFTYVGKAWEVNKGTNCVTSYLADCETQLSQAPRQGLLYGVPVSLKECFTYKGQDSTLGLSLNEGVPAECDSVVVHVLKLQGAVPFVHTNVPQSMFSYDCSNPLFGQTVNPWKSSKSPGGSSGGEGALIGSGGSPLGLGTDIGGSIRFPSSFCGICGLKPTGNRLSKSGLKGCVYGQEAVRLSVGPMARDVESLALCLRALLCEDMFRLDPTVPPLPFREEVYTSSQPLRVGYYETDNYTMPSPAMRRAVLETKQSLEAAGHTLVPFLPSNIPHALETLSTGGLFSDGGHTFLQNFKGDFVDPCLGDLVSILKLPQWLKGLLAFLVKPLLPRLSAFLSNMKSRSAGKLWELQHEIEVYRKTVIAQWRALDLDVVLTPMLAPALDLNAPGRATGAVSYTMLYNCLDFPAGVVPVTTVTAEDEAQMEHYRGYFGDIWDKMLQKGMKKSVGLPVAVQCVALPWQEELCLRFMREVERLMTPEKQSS
Outcome measure: pIC50
For clarity, pIC50 is expressed as the negative log10 of concentration in mol/L.

## Task Specify pIC50 for `COc1cc(NC(=O)C(=O)c2c(C)n(Cc3ccc(Cl)cc3)c3ccc(C)cc23)ccn1` and stop.
## Result 8.00
